%Inh for assorted compounds
- Tested on: ERK5
- Construct: gene MAPK7
- measurement parameters: concentration: 1 μM, replicates: in singlicate; n = 1;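 also: KINOMEscan kinase panel screen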
I only need the number, in %, no unit after it.

// worked examples, %Inh included
Nc1nc(-c2ccc3c(N)n[nH]c3c2)cc(N2CCCCC2)n1 | 0
Clc1ccc(-c2cc(-c3c[nH]nc3-c3ccccn3)ccn2)cc1 | 0

Query: Suppose we examine the compound Cn1ccc2ncnc(Oc3ccc(NC(=O)Nc4cccnc4)c(Cl)c3)c21 ; what %Inh value has been reported?
Reply: 5

Query: Suppose we examine the compound Cl.O=S(=O)(c1cccc(F)c1)c1ccc(Nc2ncnc3cc(Br)sc23)cc1Cl ; what %Inh value has been reported?
Reply: 4

Query: Suppose we examine the compound Cc1cc(N2CCC(NS(=O)(=O)c3ccc(F)cc3)CC2)nc(Nc2cccc(C#N)c2)n1.O=C(O)C(F)(F)F ; what %Inh value has been reported?
Reply: 0

Query: Suppose we examine the compound CNc1nccc(-c2c(-c3ccc(F)cc3)ncn2CCCN2CCOCC2)n1 ; what %Inh value has been reported?
Reply: 0

Query: Suppose we examine the compound Nc1nccc2scc(-c3ccc4c(c3)CCN4C(=O)Cc3cc(F)ccc3F)c12 ; what %Inh value has been reported?
Reply: 0

Query: Suppose we examine the compound Cl.Cl.c1ccc(-c2cc3ccncc3cc2OC2CCNCC2)cc1 ; what %Inh value has been reported?
Reply: 0

Query: Suppose we examine the compound Cc1ccc(C)c(NC(=O)NCCNc2ccnc(Nc3ccc(F)cc3)n2)c1 ; what %Inh value has been reported?
Reply: 98.4

Query: Suppose we examine the compound CCC(CC)(CC)n1cnc2c(N)ncnc21 ; what %Inh value has been reported?
Reply: 0

Query: Suppose we examine the compound Fc1cccc(COc2ccc(Nc3ncnc4cc[nH]c34)cc2Cl)c1 ; what %Inh value has been reported?
Reply: 0

Query: Suppose we examine the compound Clc1cccc(-c2nc(Nc3ccncc3)c3ccccc3n2)c1 ; what %Inh value has been reported?
Reply: 0

Query: Suppose we examine the compound Fc1ccc(-c2ncn(CCCNCc3ccccc3)c2-c2ccncc2)cc1 ; what %Inh value has been reported?
Reply: 0

----------
- Test system: BLK
- measurement parameters: concentration: 1 μM, replicates: in singlicate; n = 1
%Inh for assorted compounds
I only need the number, in %, no unit after it.

// worked examples, %Inh included
Nc1n[nH]c2nnc(-c3ccccc3)cc12 | 0
COc1ccc(-c2nc3n(c2-c2ccncc2)CCC3)cc1 | 0
CC(C)N1CCC(n2cnc(-c3ccc(F)cc3)c2-c2ccnc(N)n2)CC1 | 2
Clc1ccc(-c2cc(-c3c[nH]nc3-c3ccccn3)ccn2)cc1 | 35
COc1ccc(Nc2nccc(N3CCC(NC(=O)Nc4ccc5c(c4)OCO5)C3)n2)cc1 (centres unmarked) | 25
CS(=O)(=O)CCNCc1nc(-c2ccc3ncnc(Nc4ccc(OCc5cccc(F)c5)c(Cl)c4)c3c2)cs1.Cl | 25

Query: Suppose we examine the compound O=C(NCCCN1CCCC1=O)c1cnc(NCc2cc(Cl)ccc2Cl)nc1NC1CCNCC1 ; what %Inh value has been reported?
Reply: 0

Query: Suppose we examine the compound O=C(CCO)NCCn1ccc2ncnc(Nc3ccc(Oc4cccc(C(F)(F)F)c4)c(Cl)c3)c21 ; what %Inh value has been reported?
Reply: 0

Query: Suppose we examine the compound FC(F)(F)c1ccc(-c2nn3ncccc3c2-c2ccnc(Nc3cccc(C(F)(F)F)c3)n2)cc1 ; what %Inh value has been reported?
Reply: 1

Query: Suppose we examine the compound OCCOCCn1ccc2ncnc(Nc3ccc(Oc4cccc(Cl)c4)c(Cl)c3)c21 ; what %Inh value has been reported?
Reply: 3

Query: Suppose we examine the compound Cl.Cn1ccc(-c2cccc(Nc3ccnc4cc(-c5nccs5)ccc34)c2)n1 ; what %Inh value has been reported?
Reply: 15

Query: Suppose we examine the compound COc1ccc(-c2oc3ncnc(N)c3c2-c2ccc(OC)cc2)cc1 ; what %Inh value has been reported?
Reply: 66

Query: Suppose we examine the compound Cn1cc(-c2ccc3c(c2)CCN3C(=O)Cc2cccc(C(F)(F)F)c2)c2c(N)ncnc21 ; what %Inh value has been reported?
Reply: 36

Query: Suppose we examine the compound FC(F)(F)c1cc(Nc2nccc(-c3c(-c4ccc(Cl)cc4)nn4ncccc34)n2)ccc1Cl ; what %Inh value has been reported?
Reply: 0

Query: Suppose we examine the compound Oc1ccc2ncnc(Nc3ccc(OCc4ccccc4)cc3)c2c1 ; what %Inh value has been reported?
Reply: 31

Query: Suppose we examine the compound Nc1nccc2scc(-c3ccc4c(c3)CCN4C(=O)Cc3cc(F)ccc3F)c12 ; what %Inh value has been reported?
Reply: 54

Query: Suppose we examine the compound Clc1cccc(-c2nc(Nc3ccncc3)c3ccccc3n2)c1 ; what %Inh value has been reported?
Reply: 19

----------
%Inh for assorted compounds
- Test system: PHKG2
- measurement parameters: concentration: 1 μM, replicates: in singlicate; n = 1
I only need the number, in %, no unit after it.

O=C(Nc1n[nH]c2nc(-c3ccco3)c(Br)cc12)c1ccc(CN2CCCC2)cc1.O=C(O)[C@H](O)[C@@H](O)C(=O)O | 0
O=C(NCCCN1CCCC1=O)c1cnc(NCc2cc(Cl)ccc2Cl)nc1NC1CCNCC1 | 1

Query: Find %Inh (PHKG2) for the entry Fc1ccc(Nc2nccc(-c3c(-c4ccc(Cl)cc4)nn4ncccc34)n2)cc1F
Reply: 0

Query: Find %Inh (PHKG2) for the entry Cl.Cl.c1ccc(-c2cc3ccncc3cc2OC2CCNCC2)cc1
Reply: 0

Query: Find %Inh (PHKG2) for the entry Cc1ccc(NC(=O)c2cccc(C#N)c2)cc1-c1ccc(C(=O)Nc2ccncc2)cc1
Reply: 0

Query: Find %Inh (PHKG2) for the entry Clc1cc(Nc2ncnc3cc[nH]c23)ccc1OCc1ccccn1
Reply: 0

Query: Find %Inh (PHKG2) for the entry COc1ccc(-c2oc3ncnc(N)c3c2-c2ccc(OC)cc2)cc1
Reply: 0

----------
- Tested on: NEK4
- measurement parameters: concentration: 1 μM, replicates: in singlicate; n = 1
%Inh for assorted molecules
I only need the number, in %, no unit after it.

Cc1cccc(-c2nc(Nc3ccc4[nH]nnc4c3)c3ccccc3n2)n1 | 0
CC(C)(C)c1ccc(-n2cnc3c(N)ncnc32)cc1 | 19
FC(F)(F)c1ccc(-c2cc(-c3c[nH]nc3-c3ccccn3)ccn2)cc1 | 0
CC(=O)Nc1n[nH]c2ncc(-c3ccccc3)cc12 | 25
CS(=O)(=O)CCNCc1nc(-c2ccc3ncnc(Nc4ccc(OCc5cccc(F)c5)c(Cl)c4)c3c2)cs1.Cl | 0
Fc1cccc(COc2ccc(Nc3ncnc4cc[nH]c34)cc2Cl)c1 | 3
O=C(Nc1ccccc1)Nc1ccc(Oc2ccc3nccn3n2)cc1 | 0
C[C@@H]1CCN(C(=O)CO)C[C@@H]1N(C)c1ncnc2[nH]ccc12 | 0

Query: Suppose we examine the molecule CCc1nc(-c2cccc(C)c2)c(-c2ccnc(NC(=O)c3ccccc3)c2)s1 ; what %Inh value has been reported?
Reply: 0

Query: Suppose we examine the molecule Nc1nc(-c2ccc3c(N)n[nH]c3c2)cc(N2CCCCC2)n1 ; what %Inh value has been reported?
Reply: 3

----------
- System: WNK1
- measurement parameters: concentration: 1 μM, replicates: in singlicate; n = 1
measurement type: %Inh (%)
I only need the number, in %, no unit after it.

// worked examples, %Inh included
OCCOCCn1ccc2ncnc(Nc3ccc(Oc4cccc(Cl)c4)c(Cl)c3)c21 | 0
Cl.O=S(=O)(c1cccc(F)c1)c1ccc(Nc2ncnc3cc(Br)sc23)cc1Cl | 4
Cl.c1ccc(Cn2ncc3cc(Nc4ncnc5ccccc45)ccc32)cc1 | 3

Query: Suppose we examine the compound Cc1ccc(C)c(NC(=O)NCCNc2ccnc(Nc3ccc(F)cc3)n2)c1 ; what %Inh value has been reported?
Reply: 0

Query: Suppose we examine the compound CSc1ccc(NC2=C(c3ccccc3Cl)C(=O)NC2=O)cc1 ; what %Inh value has been reported?
Reply: 0

Query: Suppose we examine the compound Nc1n[nH]c2nnc(-c3ccccc3)cc12 ; what %Inh value has been reported?
Reply: 10

----------
- System: p38-delta
- measurement parameters: concentration: 1 μM, replicates: in singlicate; n = 1
measurement type: %Inh
Put down the number, then write its unit next to it.

// worked examples, %Inh included
Cn1ccc2ncnc(Nc3ccc(Oc4cccc(Cl)c4)c(Cl)c3)c21 | 40%
CCC(CC)(CC)n1cnc2c(N)ncnc21 [SKF-97620] | 0%

Now examine the next entry.
Query: Suppose we examine the compound COc1ccc(NC(=O)Nc2ccc(C)c(-c3ccc(C(=O)Nc4ccncc4)cc3)c2)cc1 [GSK1398475] ; what %Inh value has been reported?
Reply: 37%

----------
%Inh for assorted molecules
- System: PKAC-beta
- Construct: gene PRKACB
- measurement parameters: concentration: 1 μM, replicates: in singlicate; n = 1
I only need the number, in %, no unit after it.

// worked examples, %Inh included
Cl.Cl.c1ccc(-c2cc3ccncc3cc2OC2CCNCC2)cc1 | 9
COC(=O)c1c(-c2ccccc2)c2cc(Cl)ccc2c(=O)n1Cc1ccc(S(C)(=O)=O)cc1 | 0
Cc1ccc(C)c(NC(=O)NCCNc2ccnc(Nc3ccc(F)cc3)n2)c1 | 0

Query: Suppose we examine the molecule CNc1nccc(-c2c(-c3ccc(F)cc3)ncn2C2CCN(C)CC2)n1 ; what %Inh value has been reported?
Reply: 17

Query: Suppose we examine the molecule CCCc1ccc(S(=O)(=O)NC2CCN(c3ccnc(Nc4ccc(OC)cc4)n3)C2)cc1 (stereo not drawn) ; what %Inh value has been reported?
Reply: 0

Query: Suppose we examine the molecule COc1ccc(NC(=O)Nc2ccc(C)c(-c3ccc(C(=O)Nc4ccncc4)cc3)c2)cc1 ; what %Inh value has been reported?
Reply: 0
